- Tested on: C. albicans Wisc.
- procedure-text: In vitro antifungal activity, MIC (modified Autotiter method)
- Format: cell-based, Candida albicans
- assay-setup: Candida albicans, 20 h, 18-20 hours at 37° C.; read-out: MIC C. albicans Wisc.
Consider the cut-off 4 µg/mL. If the recorded MIC is strictly smaller, the label is class 1; if not, the label is class 0.

CCCCC(CC)CNc1cc[n+](CCCCC[n+]2ccc(NCC(CC)CCCC)cc2)cc1 (stereo not drawn) : class 0
CCCCC(CC)CNc1cc[n+](CCCCCCCCCC[n+]2ccc(NCC(CC)CCCC)cc2)cc1 (stereo not drawn) : class 1
CCCCCCCCNc1cc[n+](CCCCCCC[n+]2ccc(NCCCCCCCC)cc2)cc1 : class 1
CCCCC(CC)CNc1cc[n+](CCCCCCC[n+]2ccc(NCC(CC)CCCC)cc2)cc1 (stereo not drawn) : class 0

# input Quick check: MIC of `CCCCCCCCCCNc1cc[n+](CCCCCCC[n+]2ccc(NCCCCCCCCCC)cc2)cc1` under 4 µg/mL?
# output class 0

# input In plain terms, does `CCCCCCCNc1cc[n+](CCCCCCCCCC[n+]2ccc(NCCCCCCC)cc2)cc1` come in under 4 µg/mL for MIC?
# output class 1

# input Consider the molecule `CCCCCCCCCCCCNc1cc[n+](CCCCCCCCCCCC[n+]2ccc(NCCCCCCCCCCCC)cc2)cc1` . Is its MIC strictly less than 4 µg/mL?
# output class 0

# input Given the entry `c1c[n+](CCCC[n+]2ccc(NC3CCCCC3)cc2)ccc1NC1CCCCC1` , would its reported MIC be below 4 µg/mL?
# output class 0

# input MIC strictly < 4 µg/mL for this molecule? Clc1ccc(Nc2cc[n+](CCCCCCCC[n+]3ccc(Nc4ccc(Cl)cc4)cc3)cc2)cc1 [Example 78B]
# output class 0

# input Does this molecule meet the criterion MIC < 4 µg/mL? `CCCCCCCCCCCCNc1cc[n+](CCCCCCCC[n+]2ccc(NCCCCCCCCCCCC)cc2)cc1`
# output class 0

# input Dear reviewer, please state whether `CCCCCCCNc1cc[n+](CCCCCCCCC[n+]2ccc(NCCCCCCC)cc2)cc1` has MIC strictly beneath 4 µg/mL.
# output class 1

# input Find out if reported MIC for `CCCCCCCCCCCCNc1cc[n+](CCCCCCC[n+]2ccc(NCCCCCCCCCCCC)cc2)cc1` is less than 4 µg/mL
# output class 0
